Please respond with reported Change in Liver weight for every item in the list.
test: Tolerability in Sprague-Dawley rats: body weight and organ weight (Example 44); format: in vivo; details: 50 mg/kg s.c. twice per week for 6 weeks, end of study
Strand notation (5' to 3'): a small letter for the sugar, then the base; units joined by * are phosphorothioate-linked, units joined directly phosphodiester-linked; [ ] holds rarer units or linkages, { } end groups; capitals alone tell only the bases. e = 2'-O-(2-methoxyethyl) (MOE); [5mC] = 5-methylcytosine; d = 2'-deoxy (DNA)

Ask: Return the recorded Change in Liver weight value; entry: ISIS 449710: 3-8-3, 4-8-4, 2-10-2, 3-10-3 or 4-10-4 MOE microwalk gapmer (Table 46) (antisense e[5mC]*eA*e[5mC]*dA*dG*dT*dT*dT*d[5mC]*dT*dG*dG*d[5mC]*eA*eG*eG)
Reply: +82%

Ask: Consider the substance ISIS 449709: 3-8-3, 4-8-4, 2-10-2, 3-10-3 or 4-10-4 MOE microwalk gapmer (Table 46) (antisense eG*e[5mC]*eA*e[5mC]*dA*dG*dT*dT*dT*d[5mC]*dT*dG*dG*d[5mC]*eA*eG*eG*e[5mC]) and give its recorded Change in Liver weight.
Reply: +8%

Ask: Retrieve Change in Liver weight measured for ISIS 449708: 3-8-3, 4-8-4, 2-10-2, 3-10-3 or 4-10-4 MOE microwalk gapmer (Table 46) (antisense eA*e[5mC]*eA*dG*dT*dT*dT*d[5mC]*dT*dG*dG*e[5mC]*eA*eG) and print it.
Reply: +31%

====

Task for the reader: assign each of the following substances its reported Bilirubin.
settings: rat, in vivo, sc, 50 mg/kg
e = 2'-O-(2-methoxyethyl) (MOE); d = 2'-deoxy (DNA)
Give a bare numeral; the unit mg/dL is implied.

Ask: Give recorded Bilirubin. ISIS 416892: 3-14-3 MOE gapmer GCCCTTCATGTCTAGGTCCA (sugars from the 5' end e3 d14 e3, backbone and methylation of C not given here)
Reply: 1

Ask: For the substance ISIS 417003: MOE gapmer, nucleobases 1275 to 1318 of SEQ ID NO: 1 (Table 8) (antisense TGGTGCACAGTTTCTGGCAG; MOE gapmer, wing and gap sizes not given here) , give its measured Bilirubin value.
Reply: 50

Ask: Consider the substance ISIS 416825: 5-10-5 MOE gapmer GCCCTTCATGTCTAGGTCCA (sugars from the 5' end e5 d10 e5, backbone and methylation of C not given here) and give its recorded Bilirubin.
Reply: 4

Ask: Give the reported value of Bilirubin for this record: ISIS 416826: 5-10-5 MOE gapmer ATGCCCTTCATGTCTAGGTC (sugars from the 5' end e5 d10 e5, backbone and methylation of C not given here)
Reply: 115

Ask: Note down Bilirubin recorded for ISIS 416925: MOE gapmer, nucleobases 1275 to 1318 of SEQ ID NO: 1 (Table 8) (antisense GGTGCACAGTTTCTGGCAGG; MOE gapmer, wing and gap sizes not given here)
Reply: 13

Ask: # return recorded Bilirubin for input ISIS 416999: MOE gapmer, nucleobases 1275 to 1318 of SEQ ID NO: 1 (Table 8) (antisense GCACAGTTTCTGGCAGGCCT; MOE gapmer, wing and gap sizes not given here)
Reply: 54

====

Consider the following substances; for each one, report its Platelets.
assay: Tolerability in Sprague-Dawley rats: hematology assays (Example 35); conditions: 50 mg/kg s.c. twice per week for 6 weeks

Ask: Fill in reported Platelets for this entry: ISIS 416858: MOE gapmer, nucleobases 1275 to 1318 of SEQ ID NO: 1 (Table 8) (antisense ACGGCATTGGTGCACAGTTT; MOE gapmer, wing and gap sizes not given here)
Reply: 19 10^3/μL

Ask: Provide one value: measured Platelets of ISIS 417002: MOE gapmer, nucleobases 1275 to 1318 of SEQ ID NO: 1 (Table 8) (antisense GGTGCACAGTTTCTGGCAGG; MOE gapmer, wing and gap sizes not given here)
Reply: 7 10^3/μL

Ask: Tell me measured Platelets for ISIS 416864: MOE gapmer, nucleobases 1275 to 1318 of SEQ ID NO: 1 (Table 8) (antisense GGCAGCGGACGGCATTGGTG; MOE gapmer, wing and gap sizes not given here) please.
Reply: 12 10^3/μL

Ask: Tell me its Platelets given ISIS 416850: MOE gapmer, nucleobases 1275 to 1318 of SEQ ID NO: 1 (Table 8) (antisense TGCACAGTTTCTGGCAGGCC; MOE gapmer, wing and gap sizes not given here) as the entry.
Reply: 26 10^3/μL

Ask: Provide one value: measured Platelets of ISIS 416838: MOE gapmer, nucleobases 1018 to 1042 of SEQ ID NO: 1 (Table 6) (antisense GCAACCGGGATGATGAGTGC; MOE gapmer, wing and gap sizes not given here)
Reply: 27 10^3/μL

====

experiment: Hematology assays in cynomolgus monkeys (Example 46); assay type: in vivo; conditions: Day-14
Strand notation (5' to 3'): a small letter for the sugar, then the base; units joined by * are phosphorothioate-linked, units joined directly phosphodiester-linked; [ ] holds rarer units or linkages, { } end groups; capitals alone tell only the bases. e = 2'-O-(2-methoxyethyl) (MOE); [5mC] = 5-methylcytosine; d = 2'-deoxy (DNA)
PARAMETER: hemoglobin content (g/dL)
Dear colleague, please return just the value in g/dL, with no unit written.

Ask: Give a short answer stating reported hemoglobin content for ISIS 449707: 3-8-3, 4-8-4, 2-10-2, 3-10-3 or 4-10-4 MOE microwalk gapmer (Table 46) (antisense e[5mC]*eA*e[5mC]*eA*dG*dT*dT*dT*d[5mC]*dT*dG*dG*e[5mC]*eA*eG*eG) .
Reply: 12.7

Ask: Hello, please tell me recorded hemoglobin content for this one: ISIS 449708: 3-8-3, 4-8-4, 2-10-2, 3-10-3 or 4-10-4 MOE microwalk gapmer (Table 46) (antisense eA*e[5mC]*eA*dG*dT*dT*dT*d[5mC]*dT*dG*dG*e[5mC]*eA*eG)
Reply: 13.0

Ask: Kindly indicate its recorded hemoglobin content. Item: ISIS 416850: MOE gapmer, nucleobases 1275 to 1318 of SEQ ID NO: 1 (Table 8) (antisense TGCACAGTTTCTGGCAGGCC; MOE gapmer, wing and gap sizes not given here)
Reply: 13.0

Ask: Tell us which hemoglobin content value is on record for ISIS 449709: 3-8-3, 4-8-4, 2-10-2, 3-10-3 or 4-10-4 MOE microwalk gapmer (Table 46) (antisense eG*e[5mC]*eA*e[5mC]*dA*dG*dT*dT*dT*d[5mC]*dT*dG*dG*d[5mC]*eA*eG*eG*e[5mC])
Reply: 12.8

Ask: Identify measured hemoglobin content associated with ISIS 416858: MOE gapmer, nucleobases 1275 to 1318 of SEQ ID NO: 1 (Table 8) (antisense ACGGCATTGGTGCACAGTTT; MOE gapmer, wing and gap sizes not given here)
Reply: 12.8

Ask: For the substance ISIS 445531: 5-8-5 or 6-8-6 MOE microwalk gapmer (Table 44) (antisense eG*eG*e[5mC]*eA*eT*dT*dG*dG*dT*dG*d[5mC]*dA*d[5mC]*eA*eG*eT*eT*eT) , report hemoglobin content.
Reply: 12.6

Ask: Identify measured hemoglobin content associated with ISIS 445522: 5-8-5 or 6-8-6 MOE microwalk gapmer (Table 44) (antisense eG*e[5mC]*eA*e[5mC]*eA*dG*dT*dT*dT*d[5mC]*dT*dG*dG*e[5mC]*eA*eG*eG*e[5mC])
Reply: 13.3

Ask: Identify measured hemoglobin content corresponding to ISIS 449711: 3-8-3, 4-8-4, 2-10-2, 3-10-3 or 4-10-4 MOE microwalk gapmer (Table 46) (antisense eA*e[5mC]*dA*dG*dT*dT*dT*d[5mC]*dT*dG*dG*d[5mC]*eA*eG)
Reply: 12.7

Ask: Find the measured hemoglobin content of ISIS 449710: 3-8-3, 4-8-4, 2-10-2, 3-10-3 or 4-10-4 MOE microwalk gapmer (Table 46) (antisense e[5mC]*eA*e[5mC]*dA*dG*dT*dT*dT*d[5mC]*dT*dG*dG*d[5mC]*eA*eG*eG) and report it.
Reply: 13.0

====

tested on: fibrinogen; test: Fibrinogen assay (Example 45); type: in vivo, cynomolgus monkeys; conditions: plasma; day 15; escalating dose regimen
PARAMETER: fibrinogen levels (mg/dL)
Just the number please, in mg/dL, no unit attached.

Ask: Read off the recorded fibrinogen levels for ISIS 416864: MOE gapmer, nucleobases 1275 to 1318 of SEQ ID NO: 1 (Table 8) (antisense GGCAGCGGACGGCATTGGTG; MOE gapmer, wing and gap sizes not given here)
Reply: 210

Ask: Identify measured fibrinogen levels corresponding to ISIS 416858: MOE gapmer, nucleobases 1275 to 1318 of SEQ ID NO: 1 (Table 8) (antisense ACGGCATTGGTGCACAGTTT; MOE gapmer, wing and gap sizes not given here)
Reply: 219

Ask: Input ISIS 416850: MOE gapmer, nucleobases 1275 to 1318 of SEQ ID NO: 1 (Table 8) (antisense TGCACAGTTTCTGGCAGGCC; MOE gapmer, wing and gap sizes not given here) , output reported fibrinogen levels.
Reply: 270

Ask: Please supply the value of reported fibrinogen levels for the item ISIS 417002: MOE gapmer, nucleobases 1275 to 1318 of SEQ ID NO: 1 (Table 8) (antisense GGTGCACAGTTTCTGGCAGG; MOE gapmer, wing and gap sizes not given here)
Reply: 195

Ask: Respond only with fibrinogen levels recorded for ISIS 416838: MOE gapmer, nucleobases 1018 to 1042 of SEQ ID NO: 1 (Table 6) (antisense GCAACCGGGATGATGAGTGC; MOE gapmer, wing and gap sizes not given here)
Reply: 198
